Parameter: pIC50. Scope: all listed entries.
# System: HER2/Neu protein in MCF7 breast carcinoma cells
# assay-procedure: HER2 degradation assay (flow cytometry)
# Format: cell-based
# test-settings: Homo sapiens, 50% degradation of HER2/Neu protein, 16 h
Answer as the number alone; pIC50 is minus log10 of concentration in mol/L.

Study these solved cases before continuing.
COc1c(C)c(Cl)nc(Cn2cnc3c(Cl)nc(N)nc32)c1C: 7.05
COc1c(C)cnc(Cn2cnc3c(Cl)nc(N)nc32)c1C: 7.52
COc1c(C)ncc(Cn2cnc3c(Cl)nc(N)nc32)c1C: 7.46
CSc1c(C)cnc(Cn2cnc3c(Cl)nc(N)nc32)c1C: 7.22

Incoming: If you can, please state the reported pIC50 value of `Cc1cnc(Cn2cnc3c(Br)nc(N)nc32)c(C)c1Br` .
Outgoing: 7.85

Incoming: Do the same for `Cc1cnc(Cn2cnc3c(Cl)nc(N)nc32)c(C)c1I` please
Outgoing: 8.05

Incoming: Do the same for `COc1c(C)c[n+]([O-])c(Cn2cnc3c(Cl)nc(N)nc32)c1C` please
Outgoing: 7.22

Incoming: Do the same for `COc1c(C)cnc(Cn2cnc3c(Br)nc(N)nc32)c1C` please
Outgoing: 7.35

Incoming: Do the same for `Cc1cnc(Cn2cnc3c(Cl)nc(N)nc32)c(C)c1Cl` please
Outgoing: 7.26

Incoming: Do the same for `COc1cc(Cn2cnc3c(Cl)nc(N)nc32)c(Cl)c(OC)c1OC` please
Outgoing: 7.60
